In this section, each of the molecules is paired with its reported inhibition at 10 µM.
Molecular target: cynomolgus BK1-receptor (Macaca fascicularis)
Construct: expressed in transfected cells; host or cells: CHO cells (homogenate)
Sequence (Q3BCU0 whole entry): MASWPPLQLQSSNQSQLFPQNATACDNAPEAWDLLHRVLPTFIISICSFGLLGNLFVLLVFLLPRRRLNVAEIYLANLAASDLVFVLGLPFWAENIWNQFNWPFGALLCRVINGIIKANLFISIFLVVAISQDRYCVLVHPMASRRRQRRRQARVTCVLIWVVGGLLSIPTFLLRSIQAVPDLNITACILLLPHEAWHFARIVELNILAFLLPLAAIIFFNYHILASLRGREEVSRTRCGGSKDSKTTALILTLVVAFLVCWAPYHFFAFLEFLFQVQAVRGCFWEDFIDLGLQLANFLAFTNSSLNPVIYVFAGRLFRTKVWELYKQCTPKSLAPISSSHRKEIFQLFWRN
Experiment: cynoBK1-receptor binding assay
Details: at 10 μgmol/L; CHO cells expressing cynomolgus BK1-receptor, radioligand kallidine (DesArg10,Leu9)

[
  {
    "MOLECULE": "O=C(NC1(C(=O)NCc2ccc(Nc3ccc(Br)cc3C(F)(F)F)cn2)CC1)c1cccc(O)n1",
    "inhibition at 10 µM": "106%"
  },
  {
    "MOLECULE": "O=C(NC1(C(=O)NCc2ccc(Nc3ccccc3C(F)(F)F)cc2)CC1)c1ccccc1",
    "inhibition at 10 µM": "81%"
  },
  {
    "MOLECULE": "COc1ncc(C(=O)NC2(C(=O)NCc3ccc(Nc4ccc(F)cc4C#N)cc3)CC2)cn1",
    "inhibition at 10 µM": "99%"
  },
  {
    "MOLECULE": "O=C(NC1(C(=O)NCc2ccc(Nc3ccc(Cl)cc3Br)cn2)CC1)c1cncnc1",
    "inhibition at 10 µM": "104%"
  },
  {
    "MOLECULE": "CN(c1ccccc1)c1ccc(CNC(=O)C2(NC(=O)c3cncnc3)CC2)cc1",
    "inhibition at 10 µM": "27%"
  },
  {
    "MOLECULE": "O=C(N[C@@]1(C(=O)NCc2ccc(Nc3cc(F)ccc3C(F)(F)F)cn2)CCOC1)c1cncnc1",
    "inhibition at 10 µM": "71%"
  },
  {
    "MOLECULE": "CC(NC(=O)C1(NC(=O)c2cncnc2)CC1)c1ncc(Nc2c(F)cccc2C(F)(F)F)cc1F (stereo not drawn)",
    "inhibition at 10 µM": "113%"
  },
  {
    "MOLECULE": "CC(NC(=O)C1(NC(=O)c2cncnc2)CC1)c1ccc(Nc2c(F)cccc2C(F)(F)F)cn1 (stereo not drawn)",
    "inhibition at 10 µM": "110%"
  },
  {
    "MOLECULE": "N#Cc1ccccc1Nc1ccc(CNC(=O)C2(NC(=O)c3cncnc3)CC2)cc1",
    "inhibition at 10 µM": "111%"
  },
  {
    "MOLECULE": "Cc1ncc(C(=O)NC2(C(=O)NCc3ccc(Nc4ccc(Br)cc4C(F)(F)F)cn3)CC2)cn1",
    "inhibition at 10 µM": "107%"
  },
  {
    "MOLECULE": "Cc1ncc(C(=O)NC2(C(=O)NCc3ccc(Nc4ccc(Cl)cc4C(F)(F)F)cn3)CC2)cn1",
    "inhibition at 10 µM": "107%"
  },
  {
    "MOLECULE": "Cn1ccc(C(=O)NC2(C(=O)NCc3ncc(Nc4c(F)cccc4C(F)(F)F)cc3F)CC2)cc1=O",
    "inhibition at 10 µM": "98%"
  },
  {
    "MOLECULE": "O=C(NC1(C(=O)NCc2ccc(Nc3ccccc3C(F)(F)F)cc2)CC1)C(F)(F)F",
    "inhibition at 10 µM": "110%"
  },
  {
    "MOLECULE": "Cc1ncc(C(=O)N[C@@]2(C(=O)NCc3ccc(Nc4ccccc4C(F)(F)F)cc3)CCOC2)c(C)n1",
    "inhibition at 10 µM": "88%"
  },
  {
    "MOLECULE": "O=C(N[C@@]1(C(=O)NCc2ccc(Nc3ccccc3C(F)(F)F)cc2)CCOC1)c1cncc(O)c1",
    "inhibition at 10 µM": "112%"
  },
  {
    "MOLECULE": "CN(C)CCC(=O)NC1(C(=O)NCc2ccc(Nc3ccccc3C(F)(F)F)cc2)CC1",
    "inhibition at 10 µM": "75%"
  },
  {
    "MOLECULE": "COc1ncc(C(=O)NC2(C(=O)NCc3ncc(Nc4c(F)cccc4C(F)(F)F)cc3F)CC2)cn1",
    "inhibition at 10 µM": "107%"
  },
  {
    "MOLECULE": "CC(C)Oc1ccc(Nc2ccc(CNC(=O)C3(NC(=O)c4cncnc4)CC3)cc2)c(C(F)(F)F)c1",
    "inhibition at 10 µM": "82%"
  },
  {
    "MOLECULE": "O=C(NC1(C(=O)NCc2ccc(Nc3ccc(Cl)cc3C(F)(F)F)cn2)CC1)c1cncs1",
    "inhibition at 10 µM": "100%"
  },
  {
    "MOLECULE": "O=C(NC1(C(=O)NCc2ccc(Nc3ccccc3C(F)(F)F)cc2)CC1)C1CC1",
    "inhibition at 10 µM": "99%"
  },
  {
    "MOLECULE": "O=C(NC1(C(=O)NCc2ccc(Nc3ccc(Br)cc3C(F)(F)F)cn2)CC1)c1ccnc(O)c1",
    "inhibition at 10 µM": "97%"
  },
  {
    "MOLECULE": "Nc1cncc(C(=O)NC2(C(=O)NCc3ccc(Nc4ccc(Br)cc4C(F)(F)F)cn3)CC2)c1",
    "inhibition at 10 µM": "107%"
  },
  {
    "MOLECULE": "O=C(Cc1cccnc1)N[C@@]1(C(=O)NCc2ccc(Nc3ccccc3C(F)(F)F)cc2)CCOC1",
    "inhibition at 10 µM": "54%"
  },
  {
    "MOLECULE": "O=C(NC1(C(=O)NCc2ccc(Nc3ccc(Cl)cc3Cl)cn2)CC1)c1cncnc1",
    "inhibition at 10 µM": "104%"
  },
  {
    "MOLECULE": "O=C(N[C@@]1(C(=O)NCc2ccc(Nc3ccccc3C(F)(F)F)cc2)CCOC1)c1ccc(O)nc1",
    "inhibition at 10 µM": "103%"
  },
  {
    "MOLECULE": "O=C(N[C@@]1(C(=O)NCc2ccc(Nc3ccccc3C(F)(F)F)cc2)CCOC1)c1cccc(O)n1",
    "inhibition at 10 µM": "107%"
  },
  {
    "MOLECULE": "CCOc1ccc(Nc2ccc(CNC(=O)C3(NC(=O)c4cncnc4)CC3)cc2)c(C(F)(F)F)c1",
    "inhibition at 10 µM": "111%"
  },
  {
    "MOLECULE": "O=C(NC1(C(=O)NCc2ccc(Nc3ccccc3C(F)(F)F)cn2)CC[S+]([O-])C1)c1cncnc1 (stereo not drawn)",
    "inhibition at 10 µM": "95%"
  },
  {
    "MOLECULE": "CNc1ncc(C(=O)NC2(C(=O)NCc3ccc(Nc4ccc(Cl)cc4C(F)(F)F)cn3)CC2)cn1",
    "inhibition at 10 µM": "99%"
  },
  {
    "MOLECULE": "CC(NC(=O)[C@]1(NC(=O)c2cncnc2)CCOC1)c1ccc(Nc2ccc(Cl)cc2C(F)(F)F)cn1 (stereo partly drawn)",
    "inhibition at 10 µM": "87%"
  },
  {
    "MOLECULE": "CNc1ncc(C(=O)N[C@@]2(C(=O)NCc3ccc(Nc4ccccc4C(F)(F)F)cc3)CCOC2)cn1",
    "inhibition at 10 µM": "107%"
  },
  {
    "MOLECULE": "CN(C)CC(=O)NC1(C(=O)NCc2ccc(Nc3ccccc3C(F)(F)F)cc2)CC1",
    "inhibition at 10 µM": "78%"
  },
  {
    "MOLECULE": "O=C(NC1(C(=O)NCc2ccc(Nc3ccc(OCC(F)F)cc3C(F)(F)F)cc2)CC1)c1cncnc1",
    "inhibition at 10 µM": "109%"
  }
]
